// reported protein stability index per item
B1: POMT2 (parent)
chain: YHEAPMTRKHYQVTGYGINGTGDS

Variants of: B1
TEST SUMMARY: protein stability index of a GFP-peptide fusion (GPS, HEK-293T) (PSI 1-6); higher = more stable;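 also: lentivirally expressed fusions sorted by FACS into six bins by GFP to DsRed ratio, PSI derived from sequencing read proportions per bin multiplied by bin number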
TEST CONTEXT: c terminus: a fixed tail appended
Kindly provide the number alone.

MUTANT ID | protein stability index
H2Q | 3.33
H10I | 2.79
T21N | 2.58
G15D | 2.31
T14L | 1.99

Fill blank: measured protein stability index of the variant Y16P is ____.
2.92

Okay, and E3S ?
1.6

Okay, and V13M ?
2.59

Okay, and E3W ?
1.44

Provenance of the data: the supplement of paper PMC10567573
